Target: Ylr278c (UniProt Q05854)
Sequence (Q05854 whole entry): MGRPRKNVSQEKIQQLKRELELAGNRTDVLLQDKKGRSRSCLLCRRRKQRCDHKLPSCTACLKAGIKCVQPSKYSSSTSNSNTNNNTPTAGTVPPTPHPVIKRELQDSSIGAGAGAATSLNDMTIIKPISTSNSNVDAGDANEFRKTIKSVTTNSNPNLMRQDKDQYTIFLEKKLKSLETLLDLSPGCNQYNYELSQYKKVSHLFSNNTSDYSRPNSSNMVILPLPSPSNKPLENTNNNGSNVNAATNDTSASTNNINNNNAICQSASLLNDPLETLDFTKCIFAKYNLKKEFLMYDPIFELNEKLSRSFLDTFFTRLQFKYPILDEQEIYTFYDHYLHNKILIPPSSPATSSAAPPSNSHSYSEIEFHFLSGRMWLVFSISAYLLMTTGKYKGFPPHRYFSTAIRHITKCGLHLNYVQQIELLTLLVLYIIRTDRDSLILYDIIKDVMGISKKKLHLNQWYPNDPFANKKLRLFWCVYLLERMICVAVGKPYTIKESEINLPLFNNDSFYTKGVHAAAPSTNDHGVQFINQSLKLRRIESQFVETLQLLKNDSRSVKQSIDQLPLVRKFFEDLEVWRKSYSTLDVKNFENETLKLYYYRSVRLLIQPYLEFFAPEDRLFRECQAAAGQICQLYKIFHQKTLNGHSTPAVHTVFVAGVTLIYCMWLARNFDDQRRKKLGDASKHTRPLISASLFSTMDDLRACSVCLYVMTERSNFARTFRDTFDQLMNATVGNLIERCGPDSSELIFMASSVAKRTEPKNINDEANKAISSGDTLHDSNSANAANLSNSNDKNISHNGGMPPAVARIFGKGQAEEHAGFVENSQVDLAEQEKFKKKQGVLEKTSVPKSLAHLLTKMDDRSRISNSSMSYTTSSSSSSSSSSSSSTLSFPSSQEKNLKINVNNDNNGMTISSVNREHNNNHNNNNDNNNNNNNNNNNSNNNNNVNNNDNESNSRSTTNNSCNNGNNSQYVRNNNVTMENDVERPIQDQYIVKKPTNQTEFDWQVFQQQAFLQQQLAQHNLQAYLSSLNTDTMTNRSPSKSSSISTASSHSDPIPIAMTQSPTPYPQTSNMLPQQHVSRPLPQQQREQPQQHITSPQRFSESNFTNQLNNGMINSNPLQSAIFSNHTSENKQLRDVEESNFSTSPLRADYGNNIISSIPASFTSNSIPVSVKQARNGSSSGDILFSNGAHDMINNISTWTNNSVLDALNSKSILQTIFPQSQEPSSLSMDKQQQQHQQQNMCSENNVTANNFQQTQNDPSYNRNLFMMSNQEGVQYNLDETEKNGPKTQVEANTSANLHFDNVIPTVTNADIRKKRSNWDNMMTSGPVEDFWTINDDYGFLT
Assay: PBM E-score (8-mer binding enrichment) (E-score (-0.5 to 0.5)); higher = stronger / more preferred TF binding
Conditions: protein concentration: 200 nM; construct: GST-DNA-binding domain
The full ranking holds about 33,000 sequences; the median of “E-score (-0.5 to 0.5)” is about -0.054, and the highest 2% start at about 0.39. The sample holds the highest values, similar sequences and a random draw of the others, so the mix is not that of the screen.
The following ranges of PBM E-score define the classes used here: LOW (below 0.2), MEDIUM (0.2 to below 0.4), HIGH (0.4 or more)

>  <POLYMER_SEQUENCE>
CGGACAAA

>  <TARGET_SYSTEM>
Ylr278c (UniProt Q05854)

>  <CLASSIFICATION>
HIGH

$$$$
>  <POLYMER_SEQUENCE>
GGTCCGCA

>  <TARGET_SYSTEM>
Ylr278c (UniProt Q05854)

>  <CLASSIFICATION>
MEDIUM

$$$$
>  <POLYMER_SEQUENCE>
ATACCGGC

>  <TARGET_SYSTEM>
Ylr278c (UniProt Q05854)

>  <CLASSIFICATION>
MEDIUM

$$$$
>  <POLYMER_SEQUENCE>
AGGTGCAC

>  <TARGET_SYSTEM>
Ylr278c (UniProt Q05854)

>  <CLASSIFICATION>
LOW

$$$$
>  <POLYMER_SEQUENCE>
CAGCGGAA

>  <TARGET_SYSTEM>
Ylr278c (UniProt Q05854)

>  <CLASSIFICATION>
MEDIUM

$$$$
>  <POLYMER_SEQUENCE>
GTACCGCA

>  <TARGET_SYSTEM>
Ylr278c (UniProt Q05854)

>  <CLASSIFICATION>
LOW

$$$$
>  <POLYMER_SEQUENCE>
CTCCGGTC

>  <TARGET_SYSTEM>
Ylr278c (UniProt Q05854)

>  <CLASSIFICATION>
HIGH

$$$$
>  <POLYMER_SEQUENCE>
CACCGGTC

>  <TARGET_SYSTEM>
Ylr278c (UniProt Q05854)

>  <CLASSIFICATION>
LOW

$$$$
>  <POLYMER_SEQUENCE>
TAGCTAGA

>  <TARGET_SYSTEM>
Ylr278c (UniProt Q05854)

>  <CLASSIFICATION>
LOW

$$$$
>  <POLYMER_SEQUENCE>
ATAGATGG

>  <TARGET_SYSTEM>
Ylr278c (UniProt Q05854)

>  <CLASSIFICATION>
LOW

$$$$
>  <POLYMER_SEQUENCE>
CCGCGGAG

>  <TARGET_SYSTEM>
Ylr278c (UniProt Q05854)

>  <CLASSIFICATION>
HIGH

$$$$
>  <POLYMER_SEQUENCE>
CGAGCAAC

>  <TARGET_SYSTEM>
Ylr278c (UniProt Q05854)

>  <CLASSIFICATION>
LOW

$$$$
>  <POLYMER_SEQUENCE>
CCGCGGCG

>  <TARGET_SYSTEM>
Ylr278c (UniProt Q05854)

>  <CLASSIFICATION>
MEDIUM

$$$$
>  <POLYMER_SEQUENCE>
GTACCGGA

>  <TARGET_SYSTEM>
Ylr278c (UniProt Q05854)

>  <CLASSIFICATION>
HIGH

$$$$
